// reported mass density for each item listed
- RECORDED CONDITIONS: 298.15 K; 101.33 kPa; Liquid; Vibrating tube method
Numbers only; they are read as kg/m3.

These recorded examples may help you get a feel for the data.
- COCCO [2-methoxyethan-1-ol]: 960.892
- CO [methanol]: 787.52
- CCCOCCO [2-propoxyethanol]: 907.878

Field request: mass density | item: CC(C)O [propan-2-ol]
781.214

Field request: mass density | item: CCCO [propan-1-ol]
801.08

Field request: mass density | item: CCO [ethanol]
787.577
